Values were extracted from patent US10517889B2.

Would you mind telling me the reported % Inhibition of each entry?
system: human SMAD7 mRNA; test: Antisense inhibition of human SMAD7 mRNA expression in Hep3B cells by 3-10-3 cEt gapmers, 10,000 nM, electroporation (Example 2); format: cell-based; conditions: SMAD7 mRNA, Hep3B cells, 10,000 nM antisense oligonucleotide, electroporation, approximately 24 hours, primer probe set RTS5062, relative to untreated control cells
Strand notation (5' to 3'): a small letter for the sugar, then the base; units joined by * are phosphorothioate-linked, units joined directly phosphodiester-linked; [ ] holds rarer units or linkages, { } end groups; capitals alone tell only the bases. k = constrained ethyl (cEt); [5mC] = 5-methylcytosine; d = 2'-deoxy (DNA)
Report the value in % with no unit label.

Exercise: # input substance: 829732 (antisense k[5mC]*kA*kT*dG*dA*dA*dG*dA*dA*dG*dT*d[5mC]*dG*kG*kG*k[5mC]) [compound 829732] ; wanted: its % Inhibition
Solution: 40

Exercise: Consider the substance 829715 (antisense kT*k[5mC]*kT*d[5mC]*d[5mC]*d[5mC]*dG*dG*dA*dG*dG*d[5mC]*d[5mC]*kG*kG*kG) [compound 829715] and give its measured % Inhibition.
Solution: 40

Exercise: Look up % Inhibition: 829759 (antisense k[5mC]*k[5mC]*kG*d[5mC]*d[5mC]*dA*d[5mC]*d[5mC]*dG*dG*d[5mC]*d[5mC]*d[5mC]*k[5mC]*kA*kT) [compound 829759]
Solution: 51

Exercise: Can you look up the measured % Inhibition of 829760 (antisense k[5mC]*k[5mC]*kG*d[5mC]*d[5mC]*dT*dT*dG*d[5mC]*d[5mC]*d[5mC]*dA*dG*kG*k[5mC]*kA) [compound 829760] for me?
Solution: 3

Exercise: Which % Inhibition is reported for this substance? 790791 (kG*kG*kG*d[5mC]*dA*d[5mC]*dA*d[5mC]*d[5mC]*dA*d[5mC]*d[5mC]*dT*kG*k[5mC]*k[5mC]; antisense) [compound 790791]
Solution: 7

Exercise: # get_value(readout='% Inhibition', item= 801132 (antisense kG*kG*kT*dG*dA*d[5mC]*dT*d[5mC]*dA*dT*d[5mC]*dA*dG*kG*k[5mC]*kA) [compound 801132] )
Solution: 55

====

Would you mind telling me the reported % inhibition of Smad7 mRNA expression (compared to control), Liver of each entry?
test system: mouse Smad7 mRNA; experiment: Pharmacology: mouse Smad7 mRNA expression in liver, kidney, duodenum, ileum and colon after subcutaneous administration in CD-1 mice (Example 6); assay type: in vivo; details: 50 mg/kg subcutaneous twice weekly for 7 weeks, liver, normalized to GAPDH
// return numeric value only (unit: %, not printed)

Exercise: For the substance 829994 (GGAGGCAGGGCCGCGA; 3-10-3 cEt gapmer, further chemistry not given here) [compound 829994] , what % inhibition of Smad7 mRNA expression (compared to control), Liver is on record?
Solution: 58

Exercise: # get_value(readout='% inhibition of Smad7 mRNA expression (compared to control), Liver', item= 830025 (antisense TTTGTAAATCGAAAGC; 3-10-3 cEt gapmer, further chemistry not given here) [compound 830025] )
Solution: 60

Exercise: I would be grateful if you could share the reported % inhibition of Smad7 mRNA expression (compared to control), Liver for 798781 (CGTAAGATTCACAGCA; 3-10-3 cEt gapmer, further chemistry not given here) [compound 798781] .
Solution: 28

====

tested on: human SMAD7 mRNA; test: Antisense inhibition of human SMAD7 mRNA expression in Hep3B cells by 3-10-3 cEt gapmers, 10,000 nM, electroporation (Example 2); assay type: cell-based; conditions: Hep3B cells, electroporation, 10,000 nM antisense oligonucleotide, approximately 24 hours, RTS5062, relative to untreated control cells
Strand notation (5' to 3'): a small letter for the sugar, then the base; units joined by * are phosphorothioate-linked, units joined directly phosphodiester-linked; [ ] holds rarer units or linkages, { } end groups; capitals alone tell only the bases. k = constrained ethyl (cEt); [5mC] = 5-methylcytosine; d = 2'-deoxy (DNA)
Short version: % inhibition of SMAD7 mRNA expression at least 20% is true (1), less is false (0).

Exercise: Entry 799834 (antisense kG*kT*kG*dG*dT*dA*dT*dA*dG*d[5mC]*dA*dT*dG*k[5mC]*kA*kT) [compound 799834] : is its % inhibition of SMAD7 mRNA expression no less than 20%?
Solution: false (0)

Exercise: Answer whether % inhibition of SMAD7 mRNA expression of 799719 (antisense k[5mC]*k[5mC]*kT*dT*dT*d[5mC]*dT*dA*d[5mC]*dT*dA*dG*dA*kA*kA*kA) [compound 799719] is greater than or equal to 20%.
Solution: false (0)

Exercise: hey, is % inhibition of SMAD7 mRNA expression for this one >= 20%? 799677 (antisense kG*k[5mC]*kT*d[5mC]*dA*dT*dG*dA*dG*d[5mC]*dA*dT*dT*kT*kG*kG) [compound 799677]
Solution: true (1)

Exercise: Determine whether measured % inhibition of SMAD7 mRNA expression meets or exceeds 20% for 799620 (kT*kA*kA*d[5mC]*dG*dA*d[5mC]*d[5mC]*dA*dG*dG*d[5mC]*d[5mC]*kT*kG*kT; antisense) [compound 799620]
Solution: true (1)

Exercise: Given the entry 772786 (kG*kA*k[5mC]*d[5mC]*dA*d[5mC]*dA*dG*d[5mC]*dA*d[5mC]*d[5mC]*dT*kT*kG*kT; antisense) [compound 772786] , answer whether its % inhibition of SMAD7 mRNA expression meets or surpasses 20%.
Solution: false (0)

Exercise: Could you tell me if the measured % inhibition of SMAD7 mRNA expression of 799633 (kA*kG*kA*d[5mC]*dT*dG*d[5mC]*d[5mC]*dA*dA*dA*dT*d[5mC]*kA*k[5mC]*kA; antisense) [compound 799633] reaches 20% or more?
Solution: true (1)

Exercise: Has 799303 (antisense kG*kA*k[5mC]*dA*dA*dA*d[5mC]*d[5mC]*dA*d[5mC]*dA*d[5mC]*dA*kT*kT*k[5mC]) [compound 799303] a recorded % inhibition of SMAD7 mRNA expression greater than or equal to 20%?
Solution: true (1)

Exercise: Please indicate if the recorded % inhibition of SMAD7 mRNA expression for 799535 (kA*kA*k[5mC]*dT*dT*dA*dA*dG*dG*d[5mC]*dA*dT*dA*kT*kA*kA; antisense) [compound 799535] meets or exceeds 20%.
Solution: true (1)

Exercise: # check: % inhibition of SMAD7 mRNA expression of 799818 (antisense k[5mC]*kA*k[5mC]*dT*dG*dA*dT*dA*dA*d[5mC]*dT*dA*dA*k[5mC]*kT*kT) [compound 799818] is greater than or equal to 20%
Solution: true (1)

Exercise: Decide: % inhibition of SMAD7 mRNA expression of 799500 (antisense kG*kA*kG*d[5mC]*dA*dG*dA*d[5mC]*dG*dG*dG*d[5mC]*dA*kA*kG*kT) [compound 799500] >= 20%?
Solution: true (1)

====

tested on: human SMAD7 mRNA; assay: Antisense inhibition of human SMAD7 mRNA expression in Hep3B cells by 3-10-3 cEt gapmers, 10,000 nM, electroporation (Example 2); format: cell-based; details: Hep3B cells, electroporation with 10,000 nM antisense oligonucleotide, approximately 24 hours, primer probe set RTS5062, relative to untreated control cells
Strand notation (5' to 3'): a small letter for the sugar, then the base; units joined by * are phosphorothioate-linked, units joined directly phosphodiester-linked; [ ] holds rarer units or linkages, { } end groups; capitals alone tell only the bases. k = constrained ethyl (cEt); [5mC] = 5-methylcytosine; d = 2'-deoxy (DNA)
Consider the following substances; for each one, report its % inhibition of SMAD7 mRNA expression.
Write down the numeric answer in % and omit the unit.

Exercise: Bench note: what % inhibition of SMAD7 mRNA expression did 799186 (antisense k[5mC]*kT*kT*dG*dT*dT*d[5mC]*dA*dT*dT*dT*dA*dA*kA*k[5mC]*k[5mC]) [compound 799186] show?
Solution: 31

Exercise: For the substance shown here, 798704 (antisense k[5mC]*kT*kG*dT*d[5mC]*d[5mC]*dG*dT*d[5mC]*dG*d[5mC]*d[5mC]*d[5mC]*k[5mC]*kT*kT) [compound 798704] , give the reported % inhibition of SMAD7 mRNA expression.
Solution: 61

Exercise: What does the data say about its % inhibition of SMAD7 mRNA expression? Entry: 799064 (antisense kT*kA*kA*dT*dT*dG*dG*dT*dT*d[5mC]*dT*dG*dG*kT*kT*k[5mC]) [compound 799064]
Solution: 47

====

system: human SMAD7 mRNA; assay: Dose-dependent inhibition of human SMAD7 mRNA expression in Hep3B cells (Example 3, Study 1 and 2); type: cell-based; details: 2220 nM, electroporation, approximately 16 hours, Study 2
Strand notation (5' to 3'): a small letter for the sugar, then the base; units joined by * are phosphorothioate-linked, units joined directly phosphodiester-linked; [ ] holds rarer units or linkages, { } end groups; capitals alone tell only the bases. k = constrained ethyl (cEt); [5mC] = 5-methylcytosine; d = 2'-deoxy (DNA)
For each entry below, report its % inhibition of SMAD7 mRNA expression value.
Don't forget the unit after the number, please.

Exercise: Form field: reported % inhibition of SMAD7 mRNA expression of 800031 (kA*kG*kA*dA*dA*d[5mC]*dA*d[5mC]*dA*dG*dT*dT*d[5mC]*k[5mC]*k[5mC]*kT; antisense) [compound 800031]
Solution: 39%

Exercise: Can you look up the measured % inhibition of SMAD7 mRNA expression of 798662 (kG*k[5mC]*kT*d[5mC]*d[5mC]*dG*dG*d[5mC]*dT*dG*d[5mC]*d[5mC]*d[5mC]*k[5mC]*kA*k[5mC]; antisense) [compound 798662] for me?
Solution: 28%

Exercise: What value of % inhibition of SMAD7 mRNA expression has been recorded for this entry: 790488 (kT*kT*k[5mC]*d[5mC]*dG*dA*dG*dG*dA*dA*dT*dG*d[5mC]*k[5mC]*kT*kG; antisense) [compound 790488]
Solution: 34%

Exercise: What % inhibition of SMAD7 mRNA expression value was documented for this substance, 830208 (kA*kA*kG*dG*dT*dG*dA*d[5mC]*dT*d[5mC]*dA*dT*d[5mC]*kA*kG*kG; antisense) [compound 830208] ?
Solution: 70%

Exercise: # get_value(readout='% inhibition of SMAD7 mRNA expression', item= 830157 (antisense kG*kA*kA*d[5mC]*dT*dG*dT*dG*d[5mC]*d[5mC]*dT*d[5mC]*dA*kG*k[5mC]*kA) [compound 830157] )
Solution: 50%

Exercise: Tell me the measured % inhibition of SMAD7 mRNA expression of 830025 (antisense TTTGTAAATCGAAAGC; 3-10-3 cEt gapmer, further chemistry not given here) [compound 830025] , please.
Solution: 58%

Exercise: Would you mind telling me what % inhibition of SMAD7 mRNA expression value was observed for 830067 (kG*kA*kA*dA*dT*dG*dG*dT*dG*d[5mC]*dT*d[5mC]*dT*kG*k[5mC]*k[5mC]; antisense) [compound 830067] ?
Solution: 59%
